experiment: Pharmacokinetic profile, IV and oral (Assay 16); format: in vivo; conditions: rat, plasma, po, 30 mg/kg, PO 30 mg/Kg, Mean ± SD
measuredParameter: half-life (h)
# unit: h | format: bare number

**Query** Value lookup for half-life; key = `CCNCc1ccc2c(Cl)cc(Cl)c(O)c2n1.Cl`
**Result** 4.71

###

tested on: Neuronal cortical cells; assay: Assay for test compound cytoxicity, MTS (Assay 3(d)); assay type: cell-based, mouse; details: BL6J×129sv, mouse, 4 days, 10 uM
measuredParameter: Viable 10 uM

INSERT INTO results (moleculesmiles, assayedsystem, measurement) VALUES
  ('Oc1c(Cl)cc(-c2cccnc2)c2cccnc12', 'Neuronal cortical cells', 95.02);

**Query** What value of Viable 10 uM has been reported for the following compound? `Oc1c(-c2ccc(F)cc2F)cc(Cl)c2cccnc12`
**Result** 42.38

**Query** I am curious: what Viable 10 uM value has been reported for `O=S(=O)(O)c1cc(I)c(O)c2ncccc12` ?
**Result** 91.02

###

Measured % inhibition Abeta toxicity, listed per entry for reference.
Test system: Neuronal cortical cells treated with Aβ1-42
Test: Assay for Aβ neurotoxicity and Aβ neuroprotection (Assay 3(c))
Assay type: cell-based, mouse
Details: 20 uM Aβ1-42, 4 days, MTS
Protocol: Media was then replaced with Neurobasal media (Invitrogen Life Technologies) and B27 supplements (Invitrogen Life Technologies). Cultures were maintained at 37° C. in 5% CO2. Prior to experimentation, the culture medium was replaced with Neurobasal media and B27 minus antioxidants (Invitrogen Life Technologies). (c) Assay for Aβ Neurotoxicity and Aβ Neuroprotection Neuronal cortical cells were cultured for five days as per Assay 2. […]
// units = %; emit number, no label

Known results for molecules:
INSERT INTO assay_data (molecule, resultunits, measurement) VALUES
  ('Nc1ccc2cccc(O)c2n1 [compound 54]', '%', 100),
  ('Oc1c(Cl)cc(Cl)c2cccnc12 [compound 45]', '%', 28);

Kindly review the next molecule as well.
**Query** # lookup: % inhibition Abeta toxicity of CN(C)Cc1ccc2c(Cl)cc(Cl)c(O)c2n1.Cl [compound 1033]
**Result** 38

###

System: Neuronal cortical cells treated with Aβ1-42
Experiment: Assay for Aβ neurotoxicity and Aβ neuroprotection (Assay 3(c))
Type: cell-based, mouse
Settings: 20 uM Aβ1-42, 4 days, MTS
Experimental: Media was then replaced with Neurobasal media (Invitrogen Life Technologies) and B27 supplements (Invitrogen Life Technologies). Cultures were maintained at 37° C. in 5% CO2. Prior to experimentation, the culture medium was replaced with Neurobasal media and B27 minus antioxidants (Invitrogen Life Technologies). (c) Assay for Aβ Neurotoxicity and Aβ Neuroprotection Neuronal cortical cells were cultured for five days as per Assay 2. […]
measuredParameter: % inhibition Abeta toxicity
Give me the value, and tack the unit on after it.

INSERT INTO results (compound, measurement) VALUES
  ('Oc1c(Br)cc(Br)c2cccnc12 [compound 47]', '13%');

**Query** Returns the measured % inhibition Abeta toxicity for the input compound. Input: Oc1cccc2ccc(CN(CCc3c[nH]cn3)Cc3ccccn3)nc12 [compound 1009]
**Result** 16%

**Query** Name the reported % inhibition Abeta toxicity value associated with the compound Oc1c(Br)cc(-c2ccccc2)c2cccnc12 [compound 806]
**Result** 36%

**Query** Could you tell me which % inhibition Abeta toxicity is on file for CCNCc1ccc2c(Cl)cc(Cl)c(O)c2n1.Cl [compound 1051] ?
**Result** 23%
